These entries and their values trace back to patent US10023591B2.

- System: STAT3
- ASSAY: STAT3 reporter gene assay (luciferase), LNCaP stable cell line pSTAT3-TA-luc, IL-6 stimulation
- Type: cell-based, human
- MEASUREMENT SETUP: Homo sapiens
Classification by IC50 follows these ranges: low (below 0.03 µM), medium (0.03 µM to below 0.4 µM), high (0.4 µM or more)

- COMPOUND: "CC(C)(c1ccc2sc(C(=O)Nc3cc(Cl)cc(Oc4ccc(Cl)c(F)c4)c3)cc2c1)S(C)(=O)=O [Example 54]"
  CLASS ASSIGNMENT: "low"
- COMPOUND: "O=C(Nc1cc(Cl)cc(Oc2ccc(Cl)cc2)c1)c1cc2cc(CS(=O)(=O)C(F)(F)F)ccc2s1 [Example 42]"
  CLASS ASSIGNMENT: "high"
- COMPOUND: "CC(C)(c1ccc2sc(C(=O)Nc3cc(Cl)cc(Oc4cccc(OC(F)(F)F)c4)c3)cc2c1)S(C)(=O)=O [Example 48]"
  CLASS ASSIGNMENT: "low"
- COMPOUND: "CC(C)(c1cc2cc(C(=O)Nc3cc(Cl)cc(Oc4ccc(Cl)cc4)c3)sc2cn1)S(C)(=O)=O [Example 50]"
  CLASS ASSIGNMENT: "medium"
- COMPOUND: "CC(C)(c1ccc2sc(C(=O)Nc3cc(Cl)cc(Oc4cc(F)cc(Cl)c4)c3)cc2c1)S(C)(=O)=O [Example 47]"
  CLASS ASSIGNMENT: "low"
- COMPOUND: "CC(C)(c1ccc2sc(C(=O)Nc3cc(Cl)nc(N4CCN5CCCCC5C4)c3)cc2c1)S(C)(=O)=O (centres unmarked) [Example 106]"
  CLASS ASSIGNMENT: "high"
- COMPOUND: "CC(C)(c1ccc(Cl)cc1)c1cc(Cl)cc(NC(=O)c2cc3cc(C(F)S(C)(=O)=O)ccc3s2)c1 (centres unmarked) [Example 25]"
  CLASS ASSIGNMENT: "medium"
- COMPOUND: "CC1(C)CC(Oc2cc(Cl)cc(NC(=O)c3cc4cc(C(C)(C)S(C)(=O)=O)ccc4s3)c2)CC(C)(C)N1 [Example 92]"
  CLASS ASSIGNMENT: "high"
- COMPOUND: "CC(C)(c1ccc2sc(C(=O)Nc3cc(Cl)nc(Oc4ccc(F)c(F)c4)c3)cc2c1)S(C)(=O)=O [Example 79]"
  CLASS ASSIGNMENT: "medium"
- COMPOUND: "CC(C)(c1ccc2sc(C(=O)Nc3cc(F)nc(Oc4ccc(Cl)cc4)c3)cc2c1)S(C)(=O)=O [Example 77]"
  CLASS ASSIGNMENT: "medium"
- COMPOUND: "CC(C)(c1ccc2sc(C(=O)Nc3cc(OCCN)cc(Oc4ccc(Cl)cc4)c3)cc2c1)S(C)(=O)=O [Example 94]"
  CLASS ASSIGNMENT: "high"

====

- Tested on: STAT3
- ASSAY: STAT3 reporter gene assay (luciferase), LNCaP stable cell line pSTAT3-TA-luc, IL-6 stimulation
- Format: cell-based, human
- MEASUREMENT SETUP: Homo sapiens
- Protocol: 1-1) Experiment on the Inhibition of STAT3 Activity […] The luciferase assay and the cell viability assay were performed respectively with one of the two plates. […] After shaking the plate for 30 minutes, luciferase activities of each well were measured in a PHERAstar™ microplate reader (BMG LABTECH) using a luciferase assay system (Cat No. E1501, Promega). […]
Mark Y for IC50 under 0.03 µM, N if at or over.

- COMPOUND: "CC(C)(c1cc(Cl)cc(NC(=O)c2cc3cc(C(C)(C)S(C)(=O)=O)ccc3s2)c1)c1cc(OCC(F)(F)F)cc(OC(F)(F)F)c1 [Example 12]"
  CLASS ASSIGNMENT: "Y"
- COMPOUND: "CC(C)(c1cc(Cl)cc(NC(=O)c2cc3cc(C(C)(C)S(C)(=O)=O)ccc3s2)c1)c1cc(OCCN2CCOCC2)cc(OC(F)(F)F)c1 [Example 8]"
  CLASS ASSIGNMENT: "N"
- COMPOUND: "CC(C)(c1ccc(F)cc1)c1cc(Cl)cc(NC(=O)c2cc3cc(C(C)(C)S(C)(=O)=O)c(F)cc3s2)c1 [Example 19]"
  CLASS ASSIGNMENT: "Y"
- COMPOUND: "CC(C)(c1ccc2sc(C(=O)Nc3cc(Cl)nc(Oc4ccc(Cl)cc4F)c3)cc2c1)S(C)(=O)=O [Example 83]"
  CLASS ASSIGNMENT: "Y"
- COMPOUND: "CC(C)(c1ccc(Cl)cc1)c1cc(Cl)cc(NC(=O)c2cc3cc(C4(S(C)(=O)=O)CCOCC4)ccc3s2)c1 [Example 34]"
  CLASS ASSIGNMENT: "N"
- COMPOUND: "CC(C)(c1ccc2sc(C(=O)Nc3cc(Cl)nc(Oc4cccc(OC(F)(F)F)c4)c3)cc2c1)S(C)(=O)=O [Example 81]"
  CLASS ASSIGNMENT: "Y"
- COMPOUND: "CC(C)(c1ccc(Cl)cc1)c1cc(Cl)cc(NC(=O)c2cc3ccc(C(C)(C)S(C)(=O)=O)cc3[nH]2)c1 [Example 35]"
  CLASS ASSIGNMENT: "N"
- COMPOUND: "COc1cc(OC(F)(F)F)cc(C(C)(C)c2cc(Cl)cc(NC(=O)c3cc4cc(C(C)(C)S(C)(=O)=O)ccc4s3)c2)c1 [Example 7]"
  CLASS ASSIGNMENT: "Y"
- COMPOUND: "CC(C)(c1cc(Cl)cc(NC(=O)c2cc3cc(C(C)(C)S(C)(=O)=O)ccc3s2)c1)c1cc(OC(F)(F)F)cc(OC(F)(F)C(F)F)c1 [Example 5]"
  CLASS ASSIGNMENT: "Y"
- COMPOUND: "CC(C)(c1ccc2sc(C(=O)Nc3cc(Br)cc(Oc4ccc(Cl)cc4)c3)cc2c1)S(C)(=O)=O [Example 39]"
  CLASS ASSIGNMENT: "Y"
- COMPOUND: "C=CCOc1cc(OC(F)(F)F)cc(C(C)(C)c2cc(Cl)cc(NC(=O)c3cc4cc(C(C)(C)S(C)(=O)=O)ccc4s3)c2)c1 [Example 14]"
  CLASS ASSIGNMENT: "Y"

====

Measured IC50 of individual entries
- Test system: STAT3
- ASSAY: STAT3 reporter gene assay (luciferase), LNCaP stable cell line pSTAT3-TA-luc, IL-6 stimulation
- Assay type: cell-based, human
- MEASUREMENT SETUP: Homo sapiens

- MOLECULE: "CS(=O)(=O)Cc1ccc2sc(C(=O)Nc3cc(Cl)cc(-c4ccc(F)cc4F)c3)cc2c1"
  OUTPUT UNIT: "µM"
  IC50: 0.028
- MOLECULE: "CC(C)(c1cc(Cl)cc(NC(=O)c2cc3cc(C(C)(C)S(C)(=O)=O)ccc3s2)c1)c1cc(OC2CC2)cc(OC(F)(F)F)c1"
  OUTPUT UNIT: "µM"
  IC50: 0.0057
- MOLECULE: "COCCS(=O)(=O)C(C)(C)c1ccc2sc(C(=O)Nc3cc(Cl)cc(Oc4ccc(Cl)cc4)c3)cc2c1"
  OUTPUT UNIT: "µM"
  IC50: 0.027
- MOLECULE: "Cc1noc(C)c1Oc1cc(NC(=O)c2cc3cc(C(C)(C)S(C)(=O)=O)ccc3s2)cc(Cl)n1"
  OUTPUT UNIT: "µM"
  IC50: 0.18
- MOLECULE: "CC(C)(c1ccc2sc(C(=O)Nc3cc(Cl)nc(N4CCN5CCCC5C4)c3)cc2c1)S(C)(=O)=O (centres unmarked)"
  OUTPUT UNIT: "µM"
  IC50: 1.4

====

- System: STAT3
- ASSAY: STAT3 reporter gene assay (luciferase), LNCaP stable cell line pSTAT3-TA-luc, IL-6 stimulation
- Format: cell-based, human
- MEASUREMENT SETUP: Homo sapiens
VALUE KIND: IC50 (µM)

- ITEM SMILES: "CC(C)(c1ccc(Cl)cc1)c1cc(NC(=O)c2cc3cc(C(C)(C)S(C)(=O)=O)ccc3s2)n(C(C)(C)C)n1"
  OUTPUT UNIT: "µM"
  SIGN: ">"
  READOUT VALUE: 10
- ITEM SMILES: "CC(C)(c1ccc2sc(C(=O)Nc3cc(Br)nc(Oc4ccc(Cl)cc4)c3)cc2c1)S(C)(=O)=O"
  OUTPUT UNIT: "µM"
  SIGN: "="
  READOUT VALUE: 0.01
- ITEM SMILES: "CN(c1cc(Cl)cc(NC(=O)c2cc3cc(C(C)(C)S(C)(=O)=O)ccc3s2)c1)c1ccc(F)cc1F"
  OUTPUT UNIT: "µM"
  SIGN: "="
  READOUT VALUE: 0.031
- ITEM SMILES: "CC(C)(c1ccc(Cl)cc1)c1cc(Cl)cc(NC(=O)c2cc3cc(C(C)(C)S(C)(=O)=O)ncc3s2)c1"
  OUTPUT UNIT: "µM"
  SIGN: "="
  READOUT VALUE: 0.065
- ITEM SMILES: "Cn1nccc1Oc1cc(NC(=O)c2cc3cc(C(C)(C)S(C)(=O)=O)ccc3s2)cc(Cl)n1"
  OUTPUT UNIT: "µM"
  SIGN: "="
  READOUT VALUE: 0.53
- ITEM SMILES: "CC(C)(C)C1CCN(c2cc(NC(=O)c3cc4cc(C(C)(C)S(C)(=O)=O)ccc4s3)cc(Cl)n2)CC1"
  OUTPUT UNIT: "µM"
  SIGN: "="
  READOUT VALUE: 0.049
- ITEM SMILES: "Cc1csc(C(C)(C)c2cc(Cl)cc(NC(=O)c3cc4cc(C(C)(C)S(C)(=O)=O)ccc4s3)c2)c1"
  OUTPUT UNIT: "µM"
  SIGN: "="
  READOUT VALUE: 0.01
